Data origin: PubChem BioAssay

Procedure Summary: small molecules captured by biotinylated probe aFGF2 – biochemical, small-molecule microarray, fluorescence 635/667, stem cell growth factor project, primary screen (AID 1067);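 further: measures binding of biotinylated aFGF2 protein to printed compounds on slides; z-score merges feature fluorescence and signal-to-noise across triplicate slides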
Test Context: higher = more signal
Observable: composite z-score
Output spec: single numeric token, no unit.

{"Compound Smiles": "COCCOC(=O)N1C(=O)[C@@]2(c3cc(C#CC4(O)CCCCCC4)ccc31)[C@H](c1ccc(O)cc1)N1[C@H](c3ccccc3)[C@H](c3ccccc3)OC(=O)[C@H]1[C@@H]2C(=O)N1CCc2cc(OC)c(OC)cc2C1", "composite z-score": -0.116}
{"Compound Smiles": "COC(=O)c1c2oc(c1C(=O)OC)C(=O)N[C@H](Cc1ccccc1)Cn1nncc1C1(CCCCC1)NC(=O)N[C@H](CO)CC2", "composite z-score": -0.0853}

Now turn to the next molecule.
The recorded composite z-score for `CCOC(=O)C[C@H]1[C@H](OC(=O)c2cc3ccccc3oc2=O)[C@@H](NC(=O)c2ccc3ccccc3c2)c2cc(OCCCO)ccc2N1C(=O)c1ccccc1` is 0.0087
